# System: HCT-116 colon
# testSummary: NCI tumour cell line growth inhibition, 48 h
*1 amine or outer side, *2 acyl side, *3 side chain or, on linkers, in order; H or OH if unused. Where a SMILES comes first, the peptide text is derived from it. [ ]: non-standard residue; d: D form. ξ: configuration not given here. X21 = CC[C@@H](C)C(N[*:1])C(=O)[*:2]; ξR = N=C(N)NCCCC(N)C(=O)O; ξI = CCC(C)C(N)C(=O)O; ξL = CC(C)CC(N)C(=O)O; ξK = NCCCCC(N)C(=O)O; ξV = CC(C)C(N)C(=O)O; ξA = CC(N)C(=O)O
Hi there, I'd appreciate the recorded TGI for every entry that follows.

Request - read-out TGI | tested on HCT-116 colon | molecule Cc1cc2cn3c4cccnc4[nH]c(=O)c3c2cc1C 2.76 µM

Given the entry O=c1c2ccccc2[nH]c2cc(O)cc(O)c12 , what TGI was observed with HCT-116 colon? > 100 µM

HCT-116 colon / TGI / S=C(Nc1ccccn1)Nc1ccccc1Cl : value? > 100 µM

Checklist item: TGI tested on HCT-116 colon, entry CCC(C)C1NC(=O)C(CC(C)C)NC(=O)C(C)NC(=O)C(C(C)C)NC(=O)C(CCCCN)NC(=O)C(CC(C)C)NC(=O)C(C(C)C)NC(=O)[C@H](C)NC(=O)C(C(C)CC)NC(=O)C(CCCN=C(N)N)NC(=O)C(CCCCN)NC(=O)C(CCCN=C(N)N)NC(=O)C(CCCCN)NC(=O)C([C@H](C)CC)NC(=O)C(CCCCN)NC1=O (some centres not stated) (cyclo(A[ξV][ξL][ξK][ξV][ξA][ξL][ξI][ξK][X21][ξK][ξR][ξK][ξR][ξI])) , value? 2.84 µM

Write down the reported TGI of Cc1ccc(S(=O)(=O)N2CCNCCN(S(=O)(=O)c3ccc(C)cc3)CCN(S(=O)(=O)c3ccc(C)cc3)CC2)cc1 , test system: HCT-116 colon. > 100 µM

Param readout= TGI; system= HCT-116 colon; entry= c1ccc(-c2cc(-c3cccs3)c(-c3cccs3)o2)cc1 ; returns value. > 100 µM

For HCT-116 colon, provide TGI of CC(C)OC(=O)[C@@H](O)[C@H](CO)C1=CC([Si](C)(C)c2ccccc2)=CON1 please. > 100 µM

---

Answer each item with its documented TGI.
# System: SNB-19 CNS
# testSummary: NCI tumour cell line growth inhibition, 48 h

# query: TGI of entry Cn1c(=O)c(Oc2ccccc2)cc2cnc(NC3CCOCC3)nc21 > 25 µM

Recorded TGI of CCNCCCn1c2c(c3ccc([N+](=O)[O-])cc3c1=O)C(=O)c1cc(OC)cnc1-2 , please. 2.53 µM

Requested field: TGI. Item: CC(=O)N1c2ccccc2C(C)C1c1[nH]c2ccccc2c1C (stereo unspecified) > 100 µM

TGI lookup needed for O=[N+]([O-])c1ccc(Cl)cc1N/N=C/c1cccc2cccnc12 , thanks. > 100 µM

Param item = C1=Nc2ccccc2C=Nc2ccccc2C=Nc2ccccc2C=Nc2ccccc21.[Cl-].[Pt+2] ; retrieve measured TGI. > 100 µM

Requested field: TGI. Item: Cc1nc(C(N)=S)sc1C(=O)C/C(=N/N)C(=O)Nc1ccc(Cl)cc1 > 100 µM

State the recorded TGI for this entry: COc1ccc(-c2cc(-c3cc(F)c(Cl)cc3Cl)on2)cc1OC > 100 µM

What TGI value was documented for this compound, CS(=O)(=O)OCCCOS(C)(=O)=O ? > 100 µM

Find the recorded TGI belonging to COc1cc2c(c(OC)c1OC)-c1ccc(OC)c(=O)cc1[C@@H](N(C)C=O)CC2 and report it. > 100 µM

Which TGI is reported for this compound? O=C(CC1C=CCS1(=O)=O)NCc1ccccc1 (stereo unspecified) > 100 µM

Entry under review: CCSc1nnc(-c2ccc3ccccc3c2O)n1-c1ccc(Cl)cc1 . Reported TGI? > 100 µM

Form field: reported TGI of C=CCCCCCCCCCOC1C=CC(OC(C)=O)C(COC(C)=O)O1 (stereo unspecified) > 100 µM

Consider the compound NS(=O)(=O)c1ccc(NC(=O)c2cccc3cc4ccccc4nc23)cc1 and give its measured TGI. > 100 µM

// lookup TGI for CS(=O)(=O)OCCN(CCOS(C)(=O)=O)c1ccc(C=O)cc1 65.5 µM

# get_value(readout='TGI', item= CC(=O)/C=C(\O)c1[nH]c(C(=O)O)cc1C1CCN(Cc2ccccc2)C1=O (stereo unspecified) ) 83.5 µM

# lookup: TGI of NC1=Nc2cc(OCCCN3Cc4ccccc4C3)c(OCC3CC3)cc2C12CCCC2 16.4 µM

Name the recorded TGI for Oc1ccc(C#CCOc2ccccc2)cc1CNCCN(Cc1ccccn1)Cc1ccccn1 . 7.67 µM

Return reported TGI; argument: N#Cc1ccc2c(c1)C(=O)c1c-2n(CCCN)c(=O)c2cc([N+](=O)[O-])ccc12 1.54 µM

Requested field: TGI. Item: CC1(CC2=C(C(=O)NCCO[Si](C)(C)C(C)(C)C)C3(OCCO3)C2=O)OCCO1 > 100 µM

Form field: reported TGI of Cn1c(=O)c2c(nc(Nc3ccc(Cl)cc3)n3c(=O)n(-c4ccccc4)c(=O)n23)n(C)c1=O > 100 µM

# query: TGI of entry CC(C)Nc1ncc2cc(Oc3ccc(F)cc3F)c(=O)n(C)c2n1 > 25 µM

---

# Test system: SNB-19 CNS
# testSummary: NCI tumour cell line growth inhibition, 48 h; in the data active = GI50 below about 0.43 µM; inactive = the rest
The reply should name one outcome from active, inactive

Per the records of this test, what outcome belongs to CCOC(=O)c1cc(C(=O)c2cc(OC)c(OC)c(OC)c2)n2ccccc12 ? active

Record lookup: outcome of this test for COc1cc2c(cc1OCCCCOc1ccc(-c3nc4ccccc4s3)cc1)N=C[C@@H]1CCCN1C2=O ? inactive

Each compound tested received a call. Report the one for CSc1ncnc2c1CCN2 . inactive

What did the test return for CC(C)Nc1ncc2cc(Oc3ccc(F)cc3F)c(=O)n(C)c2n1 ? inactive

Hey, what did the test say about COc1ccc2c(c1)/C(=N/OC(C)=O)c1c-2c(=O)[nH]c2ccccc12 ? inactive

Tell me the assay call for COC1=C(Br)C(=O)C2=C(C1=O)C1C3=C(C(=O)C=CC3=O)C2c2ccccc21 (stereo not given) please. inactive

Would you mind telling me which call this test gave COc1ccc(-c2csc(NC(=O)c3cc(O)c(O)c(O)c3)n2)cc1 ? inactive

Please state the recorded outcome for this compound: COc1cc(/C=C2\C(=O)Nc3cccc(Cl)c32)cc(OC)c1OC inactive

How did this test come out for N#Cc1ccc2c(c1)C(=O)c1c-2n(CCCN)c(=O)c2cc([N+](=O)[O-])ccc12 ? active

Dear colleague, could you share the recorded outcome for Oc1ccc(C#CCOc2ccccc2)cc1CNCCN(Cc1ccccn1)Cc1ccccn1 when you have a moment? inactive

---

Please go through the items and note down their TGI.
# Tested on: UACC-257 melanoma
# testSummary: NCI tumour cell line growth inhibition, 48 h

TGI for CCCCCCCCCCCCCCCCCCOCC(COP(=O)([O-])OCC[N+](C)(C)C)OC (stereo unspecified) ? 30.5 µM

Consider the compound shown here: Cc1ccc(Sc2sc(-c3ccccc3)nc2[P+](c2ccccc2)(c2ccccc2)c2ccccc2)cc1 What is its recorded TGI? 1.11 µM

Data request, read-out TGI, for CC(=O)/C=C/c1ccc(C)cc1 > 100 µM

Fill in the blank: the reported TGI of N#Cc1ccc(Oc2nc3ccc(C(F)(F)F)cc3nc2-c2ccccc2)cc1 is ____. 54.7 µM

Which measured TGI value corresponds to CCOc1ccc2nc(NC(NC(=O)c3cccnc3)(C(F)(F)F)C(F)(F)F)sc2c1 ? 69.4 µM

Item CC1(C)CC2(C)CC1CC2NC(=O)CCN1CCOCC1 (stereo unspecified) has what recorded TGI? > 100 µM

State the recorded TGI for this entry: O=C(/C=C/c1ccccc1Cl)c1ccc(Cl)cc1Cl 29.7 µM

Fill in the blank: the reported TGI of COc1cc(Nc2nc3ccc(C(F)(F)F)cc3nc2-c2ccccc2)cc(OC)c1OC is ____. 85 µM

Value lookup for TGI; key = c1ccc(C2=NCCc3cc4c(cc32)OCO4)cc1 > 100 µM

Would you kindly share the measured TGI for CSc1nc2c(=O)n(-c3ccccc3)c(=S)n(-c3ccccc3)c2s1 ? > 100 µM

// returns reported TGI for input CCc1nc2ccc(C(F)(F)F)cc2[nH]c1=O > 100 µM

Give the measured TGI of O=C(N/N=C\c1ccccc1)Nc1cccc2ccccc12 . > 100 µM

Which TGI reading was recorded for the compound CC1(C)CCC(=O)NC1CC(=O)CC1NC(=O)CCC1(C)C (stereo unspecified) ? > 100 µM

Entry under review: COc1ccc(N(C)c2c3ccccc3nc3[nH]c4ccccc4c23)cc1 . Reported TGI? 10 µM

I am curious: what TGI value has been reported for COc1ccc(Oc2nc(C#CC(C)(C)O)nc(Oc3ccc(OC)cc3)n2)cc1 ? 38.2 µM

// query TGI value for entry N#CC1CC2(C(=O)C1=O)c1ccccc1-c1ccccc12 (stereo unspecified) > 100 µM

State the recorded TGI for this entry: N#Cc1c(N)nc(N2CCOCC2)c(C#N)c1-c1ccccc1Cl > 100 µM

Report TGI for COc1cc2c(cc1OC)-c1cc3cc(OC)c(OC)cc3c(=O)n1CC2 please. > 78.4 µM

Which TGI value is on record for O=[N+]([O-])c1ccc2nc3ccccc3cc2c1 ? 5.86 µM

Given the compound CC(C)CN(CC(C)C)C(=O)C1CCCC[C@@H]1C(=O)O (stereo partly specified) , what is its reported TGI? > 100 µM

So what does the record say about TGI for O=C(OCCC12CC3CC(CC(C3)C1)C2)c1ccc(NCc2cc(O)ccc2O)cc1 ? 2.38 µM

// returns reported TGI for input CN1CCN(c2ccc(C(=O)Nc3cc(-c4cccc(NS(=O)(=O)c5ccccc5)c4)[nH]n3)cc2)CC1 27 µM

Which TGI value is on record for O=C1c2ccccc2-c2nc(/C=C/c3ccccc3)cc3c2c1nc1ccccc13 ? > 100 µM

Sample O=C1CS/C(=N\S(=O)(=O)c2ccc(N3N=C4c5ccccc5CC4C3c3ccc(Cl)cc3)cc2)N1c1ccccc1 (stereo unspecified) — what was its TGI? > 100 µM

What does the data say about its TGI? Entry: CC[C@@]12C=CC(=S)N(CCSc3ccccc3)[C@@H]1c1c(n(S(=O)(=O)c3ccc(OC)cc3)c3ccccc13)CC2 > 100 µM

Dear colleague, I am looking for the recorded TGI of the following compound: COc1ccc(-c2c(N)[n+]([O-])c3ccccc3[n+]2[O-])cc1OC > 100 µM

Sample N#C/C(=C\c1ccc(C(O)P(=O)(O)O)cc1)C(N)=O (stereo unspecified) — what was its TGI? > 100 µM

What value of TGI has been recorded for this entry: O=c1c2ccccc2nc(-c2cccc(Cl)c2)n1NCC1(O)OCC(O)C(O)C1O (stereo unspecified) > 100 µM

// returns reported TGI for input O=C(c1ccc(Cl)cc1)c1ccc(OCCSCCCCCCCCCCSCCOc2ccc(C(=O)c3ccc(Cl)cc3)cc2)cc1 > 100 µM

GET /values?readout=TGI&item= COC(=O)C1C(OCc2ccccc2)C2CCC1(OC)C=C2C (stereo unspecified) > 100 µM

// returns reported TGI for input CC(NC(C#N)CC12CC3CC(CC(C3)C1)C2)c1ccccc1 (stereo unspecified) > 100 µM

Requested field: TGI. Item: Cc1nnc(-n2c(O)cc(=O)n(-c3ccccc3)c2=S)nc1/C=C/c1ccc(N(C)C)cc1 > 55.8 µM

Item CSc1ncnc2c1CCN2 has what recorded TGI? > 100 µM

Which TGI is listed for COc1cc(/C=C(\OC(C)=O)c2ccc3c(c2)OCO3)cc(OC)c1OC ? 34 µM

Any idea what its TGI is? The compound is Cc1[nH]nc2c1N=C(c1ccccc1Cl)c1cc([N+](=O)[O-])ccc1N2 > 25 µM

Report TGI for CC1(O)CCC2(C#N)CCC1C2O (stereo unspecified) please. > 100 µM

Given C=CC1=C(C)C2=NC1=CC1=NC(=CC3=C(C)C4=C(O)C(C(=O)OC)C(=C5NC(=C2)C(C)C5CCC(=O)OC)C4=N3)C(CC)=C1C (stereo unspecified) , state its recorded TGI. > 100 µM

State the recorded TGI for this entry: CCSc1nc(N)c2c(-c3ccccc3)c3c(nc2n1)CCC3 > 100 µM

Requested field: TGI. Item: CC/C=C/c1cc2cc[nH]c2c2c1C(C)C[C@@H]2C (stereo partly specified) > 100 µM

Need TGI of COC(=O)c1ccccc1C1CN=NC12Cc1cccc(C)c1C2=O (stereo unspecified) , thanks. > 100 µM

Which TGI is reported for this compound? Cc1ccc(C(=O)Nc2ccc(S(=O)(=O)O)c3cc(S(=O)(=O)O)cc(S(=O)(=O)O)c23)cc1NC(=O)c1cccc(NC(=O)Nc2cccc(C(=O)Nc3cc(C(=O)Nc4ccc(S(=O)(=O)O)c5cc(S(=O)(=O)O)cc(S(=O)(=O)O)c45)ccc3C)c2)c1 (tested in a mixture with another compound) > 50 µM
